System: HCC1937 (Breast Carcinoma)
TEST_PROTOCOL: Bliss excess, mean over the matrix (fraction); higher = more synergy
RECORDED_METRIC: Bliss excess
Field format: numeric only.

Answered cases to consult:
[[record]]
compound = "CC1(C)CCC(CN2CCN(c3ccc(C(=O)NS(=O)(=O)c4ccc(NCC5CCOCC5)c([N+](=O)[O-])c4)c(Oc4cnc5[nH]ccc5c4)c3)CC2)=C(c2ccc(Cl)cc2)C1 [Venetoclax] + Cn1cnc2c(F)c(Nc3ccc(Br)cc3Cl)c(C(=O)NOCCO)cc21 [Selumetinib] (first compound max 1 µM, 7x7, partner max 3 µM)"
experimental_result = -0.0392

[[record]]
compound = "CS(=O)(=O)CCNCc1ccc(-c2ccc3ncnc(Nc4ccc(OCc5cccc(F)c5)c(Cl)c4)c3c2)o1 [Lapatinib] + C[C@@H](Oc1cc(-c2cnn(C3CCNCC3)c2)cnc1N)c1c(Cl)ccc(F)c1Cl [Crizotinib] (first compound max 10 µM, 7x7, partner max 10 µM)"
experimental_result = -0.0404

[[record]]
compound = "CC1(C)CCC(CN2CCN(c3ccc(C(=O)NS(=O)(=O)c4ccc(NCC5CCOCC5)c([N+](=O)[O-])c4)c(Oc4cnc5[nH]ccc5c4)c3)CC2)=C(c2ccc(Cl)cc2)C1 [Venetoclax] + Cc1cc2ncnn2cc1Nc1ncc2c(n1)n(C1CCOCC1)c(=O)n2C [AZD7648] (first compound max 1 µM, 7x7, partner max 10 µM)"
experimental_result = -0.0733

[[record]]
compound = "CCN(CCO)CCCOc1ccc2c(Nc3cc(CC(=O)Nc4cccc(F)c4)[nH]n3)ncnc2c1 [AZD2811] + O=C(c1cc(Cc2n[nH]c(=O)c3ccccc23)ccc1F)N1CCN(C(=O)C2CC2)CC1 [Olaparib] (first compound max 1 µM, 7x7, partner max 10 µM)"
experimental_result = -0.0059


Retrieve Bliss excess measured for CN(C)CCCOc1ccc(-c2ccc3ncc4c(c3c2)n(C2CCOCC2)c(=O)n4C)cn1 [AZD0156] + O=C(c1cc(Cc2n[nH]c(=O)c3ccccc23)ccc1F)N1CCN(C(=O)C2CC2)CC1 [Olaparib] (first compound max 3 µM, partner max 3 µM) and print it. 0.0316

Retrieve Bliss excess measured for CN(C)CCCOc1ccc(-c2ccc3ncc4c(c3c2)n(C2CCOCC2)c(=O)n4C)cn1 [AZD0156] + C=CCn1c(=O)c2cnc(Nc3ccc(N4CCN(C)CC4)cc3)nc2n1-c1cccc(C(C)(C)O)n1 [AZD1775] (first compound max 1 µM, partner max 1 µM) and print it. -0.0734

Retrieve Bliss excess measured for Cc1cc2ncnn2cc1Nc1ncc2c(n1)n(C1CCOCC1)c(=O)n2C [AZD7648] + C=CCn1c(=O)c2cnc(Nc3ccc(N4CCN(C)CC4)cc3)nc2n1-c1cccc(C(C)(C)O)n1 [AZD1775] (first compound max 10 µM, partner max 1 µM) and print it. -0.0069

Retrieve Bliss excess measured for C=CCn1c(=O)c2cnc(Nc3ccc(N4CCN(C)CC4)cc3)nc2n1-c1cccc(C(C)(C)O)n1 [AZD1775] + O=C(c1cc(Cc2n[nH]c(=O)c3ccccc23)ccc1F)N1CCN(C(=O)C2CC2)CC1 [Olaparib] (first compound max 1 µM, partner max 10 µM) and print it. -0.0813

Retrieve Bliss excess measured for COc1cccc(OCCCN)c1-c1cc(Nc2cnc(C#N)cn2)n[nH]1 [Prexasertib] + C=CCn1c(=O)c2cnc(Nc3ccc(N4CCN(C)CC4)cc3)nc2n1-c1cccc(C(C)(C)O)n1 [AZD1775] (first compound max 1 µM, partner max 1 µM) and print it. -0.0247

====

System: SKN (Other Solid Carcinomas)
TEST_PROTOCOL: Bliss excess, mean over the matrix (fraction); higher = more synergy
Decide by Bliss excess: equal to or exceeding -0.04 means Met, less means Not met.

Would you please look over these solved cases?
[[record]]
compound = "Cc1cc2ncnn2cc1Nc1ncc2c(n1)n(C1CCOCC1)c(=O)n2C [AZD7648] + COc1cc([C@@H]2c3cc4c(cc3[C@@H](O[C@@H]3O[C@@H]5CO[C@@H](C)O[C@H]5[C@H](O)[C@H]3O)[C@H]3COC(=O)[C@H]23)OCO4)cc(OC)c1O [Etoposide] (first compound max 10 µM, 7x7, partner max 10 µM)"
target_or_system = "SKN (Other Solid Carcinomas)"
classification = "Met"

[[record]]
compound = "C[C@@H](Nc1cc(F)cc(F)c1)c1cc(C(=O)N(C)C)cc2c(=O)cc(N3CCOCC3)oc12 [AZD8186] + CC(=O)c1c(C)c2cnc(Nc3ccc(N4CCNCC4)cn3)nc2n(C2CCCC2)c1=O [Palbociclib] (first compound max 10 µM, 7x7, partner max 10 µM)"
target_or_system = "SKN (Other Solid Carcinomas)"
classification = "Met"

[[record]]
compound = "CC1(C)CCC(CN2CCN(c3ccc(C(=O)NS(=O)(=O)c4ccc(NCC5CCOCC5)c([N+](=O)[O-])c4)c(Oc4cnc5[nH]ccc5c4)c3)CC2)=C(c2ccc(Cl)cc2)C1 [Venetoclax] + CN(C)CCCOc1ccc(-c2ccc3ncc4c(c3c2)n(C2CCOCC2)c(=O)n4C)cn1 [AZD0156] (first compound max 1 µM, 7x7, partner max 1 µM)"
target_or_system = "SKN (Other Solid Carcinomas)"
classification = "Met"

[[record]]
compound = "N#Cc1cnc(Nc2cc(NC[C@H]3CNCCO3)c(C(F)(F)F)cn2)cn1 [SRA737] + C=CCn1c(=O)c2cnc(Nc3ccc(N4CCN(C)CC4)cc3)nc2n1-c1cccc(C(C)(C)O)n1 [AZD1775] (first compound max 10 µM, partner max 1 µM)"
target_or_system = "SKN (Other Solid Carcinomas)"
classification = "Met"


Confirm if Bliss excess reported for the compound NC1(C(=O)N[C@@H](CCO)c2ccc(Cl)cc2)CCN(c2ncnc3[nH]ccc23)CC1 [Capivasertib] + C[C@@H]1COCCN1C2=NC(=NC(=C2)C3(CC3)[S@](=N)(=O)C)C4=C5C=CNC5=NC=C4 [AZD6738] (first compound max 10 µM, 7x7, partner max 10 µM) is -0.04 or above. Not met

Confirm if Bliss excess reported for the compound Cc1c2c(nn1C)CSCc1cc(n(C)n1)CSc1cc(c3ccccc3c1)OCCCc1c(C(=O)O)n(C)c3c-2c(Cl)ccc13 [AZD5991] + C[C@@H](Nc1cc(F)cc(F)c1)c1cc(C(=O)N(C)C)cc2c(=O)cc(N3CCOCC3)oc12 [AZD8186] (first compound max 1 µM, 7x7, partner max 3 µM) is -0.04 or above. Met

Confirm if Bliss excess reported for the compound CN(CCO)CC[C@H](CSc1ccccc1)Nc1ccc(S(=O)(=O)NC(=O)c2ccc(N3CCC([C@@H](O)c4ccccc4-c4ccc(Cl)cc4)CC3)cc2)cc1S(=O)(=O)C(F)(F)F [AZD4320] + Cn1cnc2c(F)c(Nc3ccc(Br)cc3Cl)c(C(=O)NOCCO)cc21 [Selumetinib] (first compound max 1 µM, 7x7, partner max 3 µM) is -0.04 or above. Met

Confirm if Bliss excess reported for the compound Cn1cnc2c(F)c(Nc3ccc(Br)cc3Cl)c(C(=O)NOCCO)cc21 [Selumetinib] + CCN(CCO)CCCOc1ccc2c(Nc3cc(CC(=O)Nc4cccc(F)c4)[nH]n3)ncnc2c1 [AZD2811] (first compound max 10 µM, 7x7, partner max 1 µM) is -0.04 or above. Not met

Confirm if Bliss excess reported for the compound Cc1c2c(nn1C)CSCc1cc(n(C)n1)CSc1cc(c3ccccc3c1)OCCCc1c(C(=O)O)n(C)c3c-2c(Cl)ccc13 [AZD5991] + CS(=O)(=O)CCNCc1ccc(-c2ccc3ncnc(Nc4ccc(OCc5cccc(F)c5)c(Cl)c4)c3c2)o1 [Lapatinib] (first compound max 1 µM, 7x7, partner max 10 µM) is -0.04 or above. Met

Confirm if Bliss excess reported for the compound COc1cccc2c1C(=O)c1c(O)c3c(c(O)c1C2=O)C[C@@](O)(C(=O)CO)C[C@@H]3O[C@H]1C[C@H](N)[C@H](O)[C@H](C)O1 [Doxorubicin] + Cc1cc2ncnn2cc1Nc1ncc2c(n1)n(C1CCOCC1)c(=O)n2C [AZD7648] (first compound max 1 µM, 7x7, partner max 10 µM) is -0.04 or above. Met

Confirm if Bliss excess reported for the compound C[C@@H](Oc1cc(-c2cnn(C3CCNCC3)c2)cnc1N)c1c(Cl)ccc(F)c1Cl [Crizotinib] + Cn1cnc2c(F)c(Nc3ccc(Br)cc3Cl)c(C(=O)NOCCO)cc21 [Selumetinib] (first compound max 10 µM, 7x7, partner max 10 µM) is -0.04 or above. Not met

====

Measured combination Emax values are reported for all entries that follow.
Test system: A4-Fuk (B-Lymphoblastic Leukemia)
TEST_PROTOCOL: combination Emax (second highest fraction inhibited in the dose matrix, 72 h); higher = more inhibition; extreme values may be limits of the assay
Field format: numeric only.

Retrieve combination Emax measured for CN(CCO)CC[C@H](CSc1ccccc1)Nc1ccc(S(=O)(=O)NC(=O)c2ccc(N3CCC([C@@H](O)c4ccccc4-c4ccc(Cl)cc4)CC3)cc2)cc1S(=O)(=O)C(F)(F)F [AZD4320] + Nc1ccn([C@@H]2O[C@H](CO)[C@@H](O)C2(F)F)c(=O)n1 [Gemcitabine] (first compound max 1 µM, 7x7, partner max 0.3 µM) and print it. 0.914

Retrieve combination Emax measured for COc1cccc(OCCCN)c1-c1cc(Nc2cnc(C#N)cn2)n[nH]1 [Prexasertib] + C[C@@H]1COCCN1C2=NC(=NC(=C2)C3(CC3)[S@](=N)(=O)C)C4=C5C=CNC5=NC=C4 [AZD6738] (first compound max 1 µM, 7x7, partner max 10 µM) and print it. 0.879

Retrieve combination Emax measured for C=CCn1c(=O)c2cnc(Nc3ccc(N4CCN(C)CC4)cc3)nc2n1-c1cccc(C(C)(C)O)n1 [AZD1775] + O=C(c1cc(Cc2n[nH]c(=O)c3ccccc23)ccc1F)N1CCN(C(=O)C2CC2)CC1 [Olaparib] (first compound max 1 µM, partner max 10 µM) and print it. 0.875

Retrieve combination Emax measured for NC1(C(=O)N[C@@H](CCO)c2ccc(Cl)cc2)CCN(c2ncnc3[nH]ccc23)CC1 [Capivasertib] + CCN(CCO)CCCOc1ccc2c(Nc3cc(CC(=O)Nc4cccc(F)c4)[nH]n3)ncnc2c1 [AZD2811] (first compound max 10 µM, 7x7, partner max 1 µM) and print it. 0.878

Retrieve combination Emax measured for NC1(C(=O)N[C@@H](CCO)c2ccc(Cl)cc2)CCN(c2ncnc3[nH]ccc23)CC1 [Capivasertib] + Cn1cnc2c(F)c(Nc3ccc(Br)cc3Cl)c(C(=O)NOCCO)cc21 [Selumetinib] (first compound max 10 µM, 7x7, partner max 10 µM) and print it. 0.905

This collection of values is drawn from the supplement of paper PMC11061612.
